Test system: MOLM14;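 also: after 48 h exposure read by CellTiter-Glo luminescence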
Assay: cell viability relative to vehicle control; higher = less cytotoxic
Settings: 10 µM; SRSF2 genotype: SRSF2 wt/wt
Where a name gives a salt, the structure may show the parent alone.
Property: cell viability; scope: individual molecules
Outcome Measure: cell viability (%)

molecule=Cc1cnc(C(=O)N[C@H]2CCCCC/C=C\[C@@H]3C[C@@]3(C(=O)NS(=O)(=O)C3CC3)NC(=O)[C@@H]3C[C@@H](Oc4nc5ccccc5c5ccccc45)CN3C2=O)cn1 study_target=MOLM14 value_reported=100
molecule=CC1=C(CC[C@@H](C)CO[C@@H]2O[C@H](CO)[C@@H](O)[C@H](O)[C@H]2O)O[C@H]2C[C@H]3[C@@H]4CC=C5C[C@@H](O[C@@H]6O[C@H](CO)[C@@H](O[C@@H]7O[C@@H](C)[C@H](O)[C@@H](O)[C@H]7O)[C@H](O)[C@H]6O[C@@H]6O[C@@H](C)[C@H](O)[C@@H](O)[C@H]6O)CC[C@]5(C)[C@H]4CC[C@]3(C)[C@@H]12 study_target=MOLM14 value_reported=101
molecule=CN[C@H]1C(=O)N[C@@H]2Cc3ccc(cc3)Oc3cc4cc(c3O[C@@H]3O[C@H](C(=O)O)[C@@H](O)[C@H](O)[C@H]3NC(=O)CCCCCCCCC(C)C)Oc3ccc(cc3Cl)[C@@H](O)[C@@H]3NC(=O)[C@H](NC(=O)[C@@H]4NC(=O)[C@@H](NC2=O)c2cc(cc(O)c2Cl)Oc2cc1ccc2O)c1ccc(O)c(c1)-c1c(O[C@H]2O[C@H](CO)[C@@H](O)[C@H](O)[C@@H]2O)cc(O)cc1[C@@H](C(=O)NCCCN(C)C)NC3=O study_target=MOLM14 value_reported=97.9
molecule="OC[C@H]1O[C@H](O[C@H]2[C@H](O)[C@@H](O)C(O)O[C@@H]2CO)[C@H](O)[C@@H](O)[C@@H]1O (mixture of isomers)" study_target=MOLM14 value_reported=98.9
molecule=Fc1ccc(-c2c3cccc(C(F)(F)F)c3nn2Cc2ccc(F)cc2Cl)cc1 study_target=MOLM14 value_reported=98
molecule=Cc1c(C(=O)Nc2ccc(N3CCC(N4CCOCC4)CC3)c(C#N)c2)cnn1-c1ccc(Cl)cc1 study_target=MOLM14 value_reported=1.97
molecule="CC(C)=CCC[C@](C)(O[C@@H]1O[C@H](CO)[C@@H](O)[C@H](O)[C@H]1O)[C@H]1CC[C@]2(C)[C@@H]1[C@H](O)C[C@@H]1[C@@]3(C)CC[C@H](O)C(C)(C)[C@@H]3[C@@H](O[C@@H]3O[C@H](CO)[C@@H](O)[C@H](O)[C@H]3O)C[C@]12C [Ginsenoside Rg1]" study_target=MOLM14 value_reported=98.4
molecule="COc1c(N2C[C@@H]3CCCN[C@@H]3C2)c(F)cc2c(=O)c(C(=O)O)cn(C3CC3)c12 [Moxifloxacin hydrochloride]" study_target=MOLM14 value_reported=98.5
molecule=C=CC(=O)Nc1cccc(Nc2nc(Nc3ccc(NC4CN(CCF)C4)cc3OC)ncc2C(F)(F)F)c1 study_target=MOLM14 value_reported=10.4
molecule=Cc1c[nH]c(=O)[nH]c1=O study_target=MOLM14 value_reported=102
molecule="CC1CCc2c(N3CCC(O)CC3)c(F)cc3c(=O)c(C(=O)O)cn1c23 (centres undefined)" study_target=MOLM14 value_reported=108
molecule=CC(C)(CNC(=O)c1cccc(-c2noc(C(F)(F)F)n2)c1)c1coc(-c2ccccc2)n1 study_target=MOLM14 value_reported=96
molecule="NC(C=O)C(O)C(O)C(O)CO (centres undefined) [Glucosamine sulfate]" study_target=MOLM14 value_reported=108
molecule=Cc1ccc(C(C)C)cc1 study_target=MOLM14 value_reported=106
